test: activity coefficient (dimensionless); of the first substance listed, at infinite dilution; xn = mol fraction of the nth substance listed; details: 333.15 K; Liquid; Chromatography; x1 = 0
Returns: string. Value is true if measured activity coefficient is below 1, and false if it is greater than or equal to it.

{"Molecule": "CC(C)CO [2-methyl-1-propanol] + N#C[N-]C#N.N#C[N-]C#N.c1ccc(Cn2cc[n+](COCCCOC[n+]3ccn(Cc4ccccc4)c3)c2)cc1", "Class label": "false"}
{"Molecule": "ClC(Cl)Cl [trichloromethane] + CCCOC[n+]1ccn(C)c1.N#C[N-]C#N", "Class label": "true"}
{"Molecule": "CCCCCCCC [octane] + CCCOC[n+]1ccn(C)c1.N#C[N-]C#N", "Class label": "false"}
{"Molecule": "CCCCCCCCCC [decane] + CCCOC[n+]1ccn(C)c1.O=S(=O)([N-]S(=O)(=O)C(F)(F)F)C(F)(F)F", "Class label": "false"}
{"Molecule": "C#CCCCC [1-hexyne] + CN(C)c1cc[n+](COCCCOC[n+]2ccc(N(C)C)cc2)cc1.O=S(=O)([N-]S(=O)(=O)C(F)(F)F)C(F)(F)F.O=S(=O)([N-]S(=O)(=O)C(F)(F)F)C(F)(F)F", "Class label": "false"}

Lab log: compare recorded activity coefficient with 1; is it strictly lower for ClC(Cl)(Cl)Cl [tetrachloromethane] + CCCOC[n+]1ccn(Cc2ccccc2)c1.N#C[N-]C#N ?
false

Here's an entry: ClC(Cl)(Cl)Cl [tetrachloromethane] + CCCCCCCCn1cc[n+](COCCC)c1C.N#C[N-]C#N . Is its activity coefficient below 1?
false

In plain terms, does CC#N [acetonitrile] + Cn1cc[n+](COCCCOC[n+]2ccn(C)c2)c1.N#C[N-]C#N.N#C[N-]C#N come in under 1 for activity coefficient?
true

A record lists CCC(C)CC [3-methylpentane] + CCCOC[n+]1ccn(C)c1.O=S(=O)([N-]S(=O)(=O)C(F)(F)F)C(F)(F)F . Is its activity coefficient below 1?
false

Please determine if Cc1cccc(C)c1 [1,3-dimethylbenzene] + CCCOC[n+]1ccn(C)c1.F[B-](F)(F)F is below 1 in terms of activity coefficient.
false

hey, is activity coefficient for CCCCO [butan-1-ol] + CCCCCCCCn1cc[n+](COCCCOC[n+]2ccn(CCCCCCCC)c2C)c1C.N#C[N-]C#N.N#C[N-]C#N lower than 1 or not?
false

Determine whether this molecule shows activity coefficient lower than 1 (ties excluded): CCCCCCCCCC [decane] + CCCOC[n+]1ccn(C)c1.F[B-](F)(F)F
false
